Cell division index (CDI): recorded values
Test system: CD4+ T cells in PBMC from subjects without T1D
Test: CFSE-based proliferation assay, PBMC of subjects without T1D
Assay type: cell-based, human
Conditions: donor 2 without T1D; CFSE-labelled PBMC, peptide 10 μM; mean CDI
The answer should be written as a number, with no unit following it.

[
  {
    "Macromolecule Sequence": "EAEDLQVGQVELGGGPGAGSLQPLALEGSLQ [WT, reference compound]",
    "Cell division index (CDI)": 1.0
  },
  {
    "Macromolecule Sequence": "EAEDLEVGQVELGGGPGAGSLQPLALEGSLQ [Q6E, C-peptide variant with glutamine 6 substituted for glutamic acid]",
    "Cell division index (CDI)": 2.6
  },
  {
    "Macromolecule Sequence": "EAEDLEVGEVELGGGPGAGSLEPLALEGSLE [QallE, C-peptide with all four glutamines substituted for glutamic acid]",
    "Cell division index (CDI)": 1.2
  },
  {
    "Macromolecule Sequence": "EAEDLQVGQVELGGGPGAGSLQPLALEGSLE [Q31E, C-peptide variant with glutamine 31 substituted for glutamic acid]",
    "Cell division index (CDI)": 1.7
  },
  {
    "Macromolecule Sequence": "EAEDLQVGEVELGGGPGAGSLQPLALEGSLQ [Q9E, C-peptide variant with glutamine 9 substituted for glutamic acid]",
    "Cell division index (CDI)": 1.4
  }
]

**Query** Quick check: Cell division index (CDI) of EAEDLQVGQVELGGGPGAGSLEPLALEGSLQ [Q22E, C-peptide variant with glutamine 22 substituted for glutamic acid] ?
**Result** 1.1
